This collection of values is drawn from PubChem BioAssay AID1347423.

Assay: Resistance to Poly (ADP-Ribose) Polymerase inhibitor: Gene Identification via Genome-wide siRNA Screen
Details: mouse BRCA2 R2336H ES cells, olaparib, CellTiter-Glo viability; active compounds read high
Screen size: about 52,000 sequences; about 210 (0.4%) were called active. Many of the other results were omitted from the sample, so actives are more common in it than they were.
Response field label takes t when z-score is strictly below 0.9 and f in all other cases.

Task item: Lab note: z-score threshold 0.9. Does this sequence come in strictly under it? CGAAGGACAAAAUAUCAGCTT against 4930517G15Rik
Reply: t

Task item: Lab note: z-score threshold 0.9. Does this sequence come in strictly under it? GGGACUGUAAUGUUGACACTT against Olfr560
Reply: t

Task item: Lab note: z-score threshold 0.9. Does this sequence come in strictly under it? CCGAAUGGAAUACCAAAUUTT against Cst8
Reply: t

Task item: Lab note: z-score threshold 0.9. Does this sequence come in strictly under it? GGCCUAAAUUGACAAACUUTT against Mgea5
Reply: t

Task item: Lab note: z-score threshold 0.9. Does this sequence come in strictly under it? CGUUUGCUCUAAAGCCAGGTT against BC004728
Reply: f

Task item: Lab note: z-score threshold 0.9. Does this sequence come in strictly under it? GGAAGUAGAGACAGGAGGATT against AF119384
Reply: f

###

Test: Resistance to Poly (ADP-Ribose) Polymerase inhibitor: Gene Identification via Genome-wide siRNA Screen
Details: mouse BRCA2 R2336H ES cells, olaparib, CellTiter-Glo viability
Among all 52,000 sequences or so, about 210 (0.4%) were called active.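 The calls were made as follows: active = gene whose silencing raises cell survival under the drug, median off-target-corrected z-score across its silencing RNAs 2 or more; inactive = the rest.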 This excerpt belongs to a sample that is enriched for actives.
Your response should consist of one outcome taken from 1.0 (active), 0.0 (inactive)

Study these solved cases before continuing.
>>> class_assignment("GCCACCUCAAUGAAAGGAGTT against Slc23a1")
0.0
>>> class_assignment("GCUGAAAUCAGAAGCUAACTT against Casc3")
0.0
>>> class_assignment("GGCAAGAGAAUUCAGAUCUTT against Slc5a1")
0.0
>>> class_assignment("GCUUGUCUCACACAGCUCUTT against Olfr401")
0.0
>>> class_assignment("CCCAUACUAAAAUUGUUGATT against Adam29")
1.0

Continue with the sequence presented below.
Task item: Can you look up the reported call for GGCAUUGUAGAGAUGACUCTT against 4732479N06Rik for me?
Reply: 0.0

###

Experiment: Resistance to Poly (ADP-Ribose) Polymerase inhibitor: Gene Identification via Genome-wide siRNA Screen
Conditions: mouse BRCA2 R2336H ES cells, olaparib, CellTiter-Glo viability; active compounds read high
Among all 52,000 sequences or so, about 210 (0.4%) were called active. The full list was thinned out, with actives kept by preference.
property-label: z-score
# answer = number (no unit)

# annotated cases, reported z-score shown
>>> data_value("GGUGAUCCUCAUCAUCAGUTT against 2400010G15Rik")
2.76
>>> data_value("UUCUGUGCAUCCUGUCCUATT against Kcnk15")
-0.484
>>> data_value("GGCUGUUUGUGGUAUAGGUTT against Lrrc3")
1.52
>>> data_value("GCAUCUUCGAGGUUUCAAATT against BC006583")
2.47
>>> data_value("GCAAGAAGUAAUCAACUUUTT against Rqcd1")
2

Task item: Item under review: GGAACGAGACUCAUCUUCUTT against Cic . Reported z-score?
Reply: 1.35

Task item: Item under review: GCUUAGACUCACCAAAGGCTT against Gpr26 . Reported z-score?
Reply: 1.11

Task item: Item under review: CGGCCUGUUAUAAACCUGCTT against 4933409K07Rik . Reported z-score?
Reply: -0.131

Task item: Item under review: GGGUGUACAUUGAAAUUAATT against Epha4 . Reported z-score?
Reply: 1.05
